Biological target: Human TRPC6 (Homo sapiens, UniProt Q9Y210)
Construct: expressed in transfected cells
Sequence (Q9Y210 1-931): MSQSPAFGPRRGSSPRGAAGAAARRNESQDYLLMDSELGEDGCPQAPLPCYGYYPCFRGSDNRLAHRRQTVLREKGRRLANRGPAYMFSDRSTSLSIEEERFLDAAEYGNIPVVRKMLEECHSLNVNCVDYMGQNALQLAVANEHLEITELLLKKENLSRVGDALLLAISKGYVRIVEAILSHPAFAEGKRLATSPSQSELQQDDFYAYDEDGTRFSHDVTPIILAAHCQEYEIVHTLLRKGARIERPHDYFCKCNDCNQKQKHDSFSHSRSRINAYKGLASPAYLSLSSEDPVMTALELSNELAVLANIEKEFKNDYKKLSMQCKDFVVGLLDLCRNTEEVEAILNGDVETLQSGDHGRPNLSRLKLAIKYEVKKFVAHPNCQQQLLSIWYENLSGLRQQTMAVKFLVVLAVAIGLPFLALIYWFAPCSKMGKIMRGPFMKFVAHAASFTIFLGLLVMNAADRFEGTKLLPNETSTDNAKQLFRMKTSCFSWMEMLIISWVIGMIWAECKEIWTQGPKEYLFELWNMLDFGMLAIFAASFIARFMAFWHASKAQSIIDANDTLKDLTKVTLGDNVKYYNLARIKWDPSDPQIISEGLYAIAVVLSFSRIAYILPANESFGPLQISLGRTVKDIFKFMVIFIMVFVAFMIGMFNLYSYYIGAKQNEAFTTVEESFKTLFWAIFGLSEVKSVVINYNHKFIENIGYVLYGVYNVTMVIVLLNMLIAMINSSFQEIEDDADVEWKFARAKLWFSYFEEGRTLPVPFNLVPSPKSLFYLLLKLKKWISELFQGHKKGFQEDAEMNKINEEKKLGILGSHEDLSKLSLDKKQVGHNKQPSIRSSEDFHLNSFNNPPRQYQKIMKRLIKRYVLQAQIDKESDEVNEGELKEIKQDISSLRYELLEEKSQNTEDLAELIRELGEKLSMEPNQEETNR
Test: Evaluation of TRPC6 channel inhibitory activity (2), HEK293 cells with stably introduced human TRPC6, OAG stimulation, FLIPR tetra (Compound Nos. 1293 to 1405)
Assay type: cell-based
Conditions: HEK293 cells with stably introduced human TRPC6, OAG 50 μM/0.5% DMSO, read-out: Inhibitory activity (pIC50 class) (converted)
In this section, each of the compounds is paired with its reported IC50.

Cn1nc(-c2ccccn2)cc1Oc1cc(C#N)ccc1-c1ncc(C(F)(F)CN)cn1 :: 10 to 1000 nM
Cn1nc(-c2ccccn2)cc1Oc1cc(Cl)cnc1-c1ncc(CN)cn1 :: > 1000 nM
Cc1nc(Oc2cc(Cl)ccc2-c2ncc(CCN)cn2)c(C)c(N2CCOCC2)n1 :: > 1000 nM

# evaluate next
**Q:** Could you share which IC50 value was measured for `Cn1nc(C2CCOCC2)cc1Oc1cc(C#N)ccc1-c1ncc([C@@H](F)CN)cn1` ?
**A:** 10 to 1000 nM

---

Molecular target: Human TRPC6 (Homo sapiens)
Construct: expressed in transfected cells
Assay: Evaluation of TRPC6 channel inhibitory activity (2), HEK293 cells with stably introduced human TRPC6, OAG stimulation, FLIPR tetra (Compound Nos. 1293 to 1405)
Format: cell-based
Details: HEK293 cells with stably introduced human TRPC6, OAG 50 μM/0.5% DMSO, read-out: Inhibitory activity (pIC50 class) (converted)
Overview of recorded IC50 for various molecules

Consider the reported IC50 for these molecules:
Cn1nc(-c2ccccn2)cc1Oc1cc(Cl)ccc1-c1ncc([C@H](F)CN)cn1 :: < 10 nM
Cn1nc(C2CCOCC2)cc1Oc1cc(Cl)ccc1-c1ncc([C@@H](F)CN)cn1 :: < 10 nM
Cc1cc(Oc2cc(Cl)ccc2-c2ncc([C@@H](F)CN)cn2)cc(N2CCOCC2)n1 :: 10 to 1000 nM

# input for lookup
**Q:** Request - read-out IC50 | tested on Human TRPC6 (Homo sapiens) | molecule `Cc1cc(Oc2cc(Cl)cnc2-c2ccc([C@@H](F)CN)cn2)cc(N2CCOCC2)n1`
**A:** 10 to 1000 nM
